# assay protocol: Enzymolysis with chymotrypsin (stability to enzymatic hydrolysis)
# Type: in vitro ADME
# condition: chymotrypsin; 2 hours at 37°, tris buffer pH 8; ninhydrin color; read-out: hydrolysis by α-chymotrypsin
Where a SMILES comes first, the peptide text is derived from it. The star is where a group is joined. Cbz = O=C(OCc1ccccc1)*
measurement kind: metabolised at 2 h (%)
Reply with just the number (in %).

// field: metabolised at 2 h; key: O=C(O)[C@H](Cc1ccccc1)NC(=O)[C@H](Cc1ccccc1)NC(=O)[C@@H]1CCCN1C(=O)OCc1ccccc1 [ZPro-Phe-Phe.OH, reference compound] (Cbz-Pro-Phe-Phe-OH) ; value = 5
